Biological target: HLA-A*03:01
Experiment: IEDB peptide-MHC binding, purified MHC/competitive/radioactivity; filed as Kd, often an IC50 or EC50 that approximates it; bounds were set here for any values at or beyond the usual limits of such assays
Conditions: source organism: SARS coronavirus Tor2
readout-label: pKd
Conceptually, pKd converts a concentration in mol/L into minus its log10.

For the sequence shown here, WVLAYMLFTK , give the reported pKd.
7.62

Query IISDMYDPR next
4.89

Query SLLKTHRMCK next
7.87

Query AVVCYNSNY next
5.27

Query SAAAYFVGY next
7.05

Query LLRALRLTK next
7.61

Query KQIRSAAKK next
7.37

Query RAIMATIQR next
5.57

Query LILCFTIKR next
5.85

Query KFYGPFVDR next
5.11

Query GVAPGTAVLR next
5.88
